Ref: paper PMC12596195

Molecular target: hRad51 (Homo sapiens, UniProt Q06609 1-339)
Sequence (Q06609 whole entry): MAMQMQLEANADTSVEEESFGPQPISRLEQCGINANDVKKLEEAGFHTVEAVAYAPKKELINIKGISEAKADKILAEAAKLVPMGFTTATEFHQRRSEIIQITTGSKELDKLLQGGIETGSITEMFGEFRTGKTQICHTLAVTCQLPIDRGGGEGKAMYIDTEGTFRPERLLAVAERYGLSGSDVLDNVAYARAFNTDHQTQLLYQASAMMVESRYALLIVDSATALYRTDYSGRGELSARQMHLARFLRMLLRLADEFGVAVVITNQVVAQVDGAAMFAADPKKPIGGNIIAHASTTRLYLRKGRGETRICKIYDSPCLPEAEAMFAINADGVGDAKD
Experiment: fluorescence polarization; ADP; FP: 25 mM HEPES pH 7.5, 1 mM Mg2+, 1 mM ATP, 1 mM DTT, 50 mM NaCl (100 mM in Fig. 3), 100 ug/ml BSA, 0.02% NP-40, 70 uM Ca2+ or as indicated, 3 nM 84-nt ssDNA
Details: chain copies: 28; label: 5' Alexa Fluor 488
readout: pKd
Just the number, please; pKd means minus log10 of the concentration in mol/L.

Asked: Value lookup for pKd; key = 84 nt-ssDNA (ssDNA) DNA: GGTAGCGGTTGGGTGAGTGGTGGGGAGGGTCGGGAGGTGGCGTAGAAACATGATAGGAATGTGAATGAATGAAGTACAAGTAAA
Given back: 6.32
